The reported measurements were obtained from patent US6875761B2.

- SUBJECT_OF_TEST: serotonin 1A receptor (Rattus norvegicus)
- Construct: To the receptor fraction of the hippocampus were added a test compound and 0.5 nM of [^3H]; 8-hydroxy-dipropylaminotetralin; from tissue; host or cells: rat hippocampus membrane fraction
- ASSAY_NOTES: Binding test on [3H] 8-hydroxy-dipropylaminotetralin, hippocampus receptor fraction
- Parameters: species or system SD rats
- PROTOCOL_CONDITIONS: rat hippocampus receptor fraction, 0.5 nM [3H] 8-OH-DPAT, room temperature 30 min; read-out: 5HT1
Counter-ions that a name gives are not always drawn.
MEASURED_ATTRIBUTE: Ki (nM)

A. CCCNS(=O)(=O)Cc1ccc(-c2cc3ccccc3c(N3CCN(CC)CC3)n2)cc1 [Example 81, Hydrochloride]
B. CCN1CCN(c2nc(-c3ccc(CCO)cc3)cc3ccccc23)CC1 [Example 351, dihydrochloride]
C. CCN1CCN(c2nc(-c3ccc([C@H]4CC[C@@H](O)CC4)cc3)cc3ccccc23)CC1 [Example 397, Dihydrochloride]
D. CCN1CCN(c2nc(-c3ccc(S(=O)(=O)CC)cc3)cc3ccsc23)CC1 [Example 450, dihydrochloride]
E. CCN1CCN(c2nc(-c3ccc(OCCO)c(C)c3)cc3ccccc23)CC1 [Example 40, hydrochloride]
QUERY: Highest to lowest Ki: rank the entries shown above. Show the ranking through the labels, in the order asked for.
RESULT: C, E, B, D, A
(C: 53.3 nM, E: 26.7 nM, B: 15.7 nM, D: 6.89 nM, A: 1.1 nM)

A. CCN1CCN(c2nc(-c3ccc(C#N)cc3)cc3ccccc23)CC1 [Example 62, Hydrochloride]
B. CCN1CCN(c2nc(-c3ccc(CNS(=O)(=O)CC)c(Cl)c3)cc3ccccc23)CC1 [Example 91, Hydrochloride]
QUERY: Which entry shows the lesser value of Ki here, A or B ? // caller expects the label of the chosen entry
RESULT: B

* * *

- SUBJECT_OF_TEST: serotonin 1A receptor (Rattus norvegicus, UniProt P19327)
- Construct: To the receptor fraction of the hippocampus were added a test compound and 0.5 nM of [^3H]; 8-hydroxy-dipropylaminotetralin; from tissue; host or cells: rat hippocampus membrane fraction
- Sequence (P19327 whole entry): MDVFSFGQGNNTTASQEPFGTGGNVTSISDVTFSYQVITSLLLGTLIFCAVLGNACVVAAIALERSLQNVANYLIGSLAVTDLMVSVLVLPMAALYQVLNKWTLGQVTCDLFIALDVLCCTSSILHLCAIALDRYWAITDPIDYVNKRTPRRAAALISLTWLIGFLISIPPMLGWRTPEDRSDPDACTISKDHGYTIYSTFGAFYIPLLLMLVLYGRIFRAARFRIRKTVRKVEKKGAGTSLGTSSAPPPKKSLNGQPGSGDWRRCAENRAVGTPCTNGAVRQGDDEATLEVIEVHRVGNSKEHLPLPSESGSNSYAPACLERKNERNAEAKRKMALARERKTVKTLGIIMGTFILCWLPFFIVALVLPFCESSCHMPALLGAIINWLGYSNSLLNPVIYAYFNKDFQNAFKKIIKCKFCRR
- ASSAY_NOTES: Binding test on [3H] 8-hydroxy-dipropylaminotetralin, hippocampus receptor fraction
- Set-up: species or system SD rats
- PROTOCOL_CONDITIONS: rat hippocampus receptor fraction, 0.5 nM [3H] 8-OH-DPAT, room temperature 30 min; read-out: 5HT1
pKi: −log10 of the molar value. Structures can show the parent of a compound that is named as a salt.
MEASURED_ATTRIBUTE: pKi

CCN1CCN(c2nc(-c3ccc(CC(C)(C)CO)cc3)cc3ccccc23)CC1 [Example 389, Oxalate] ... 7.85

P. CCN1CCN(c2nc(-c3ccc(N4CCN(C(C)=O)CC4)cc3)cc3ccccc23)CC1 [Example 100, Trihydrochloride]
Q. CCN1CCN(c2nc(-c3ccc(CCNS(=O)(=O)CC)cc3)cc3ccccc23)CC1 [Example 79, Hydrochloride]
QUERY: Select the item whose pKi value is smaller, choosing between P and Q . State the label of the item chosen.
RESULT: P
(P: 7.90, Q: 8.24)

* * *

- SUBJECT_OF_TEST: serotonin 2 receptor (Rattus norvegicus)
- Sequence (P14842 whole entry): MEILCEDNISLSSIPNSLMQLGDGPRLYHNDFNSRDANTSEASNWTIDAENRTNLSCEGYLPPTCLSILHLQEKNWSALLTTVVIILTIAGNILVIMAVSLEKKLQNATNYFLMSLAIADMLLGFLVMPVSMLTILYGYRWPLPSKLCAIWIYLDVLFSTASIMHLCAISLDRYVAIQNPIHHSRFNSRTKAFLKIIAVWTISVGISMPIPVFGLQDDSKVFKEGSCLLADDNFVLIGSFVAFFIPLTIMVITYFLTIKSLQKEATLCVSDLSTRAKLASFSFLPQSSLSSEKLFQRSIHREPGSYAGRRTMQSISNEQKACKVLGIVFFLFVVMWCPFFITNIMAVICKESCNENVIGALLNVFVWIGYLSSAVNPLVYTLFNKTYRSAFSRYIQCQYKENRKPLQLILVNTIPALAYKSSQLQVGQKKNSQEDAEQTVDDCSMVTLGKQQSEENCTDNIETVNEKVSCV
Structures can show the parent of a compound that is named as a salt.
MEASURED_ATTRIBUTE: Ki (nM)

Worked set:
CCN1CCN(c2nc(-c3ccc(OCCO)cc3)cc3cccc(F)c23)CC1 [Example 234, dihydrochloride] ... 1.11
CCCS(=O)(=O)Nc1ccc(-c2cc3ccccc3c(N3CCN(CC)CC3)n2)cc1 [Example 72, Hydrochloride] ... 3.6
CCN1CCN(c2nc(-c3ccnc(Cl)c3)cc3ccccc23)CC1 ... 11.1
CCN1CCN(c2nc(-c3ccc(C(O)CO)cc3)cc3ccccc23)CC1 (stereo not shown) [Example 387, Dihydrochloride] ... 24.7
CCN1CCN(c2nc(-c3ccc(C(C)O)cc3)cc3ccccc23)CC1 (stereo not shown) [Example 348, dihydrochloride] ... 1.6

A. CCN1CCN(c2nc(-c3csc(CO)c3)cc3ccccc23)CC1 [Example 161, dihydrochloride]
B. CCN1CCN(c2nc(-c3ccc(OCCOC)c(F)c3)cc3ccccc23)CC1 [Example 367, dihydrochloride]
QUERY: Please let me know which one, A or B , has a lower measured Ki value. Identify your pick by its label.
RESULT: B
(B: 3.3 nM, A: 23.8 nM)

P. CCN1CCN(c2nc(/C=C/c3ccc(OCCO)cc3)cc3ccsc23)CC1 [Example 431, hydrochloride]
Q. CCN1CCN(c2nc(-c3ccc(OC)c(CCCO)c3)cc3ccsc23)CC1 [Example 261, Oxalate]
QUERY: Could you tell me which of P and Q has the lower Ki reading? Output the label that corresponds to your choice.
RESULT: Q
(Q: 0.06 nM, P: 2.11 nM)
